Hey, just so you know, these numbers are from paper PMC5540273.

# Test system: TBK1
# settings: concentration: 1 μM, replicates: in singlicate; n = 1
Provide the recorded %Inh for the entries that follow.
Number in %, nothing else.

IN: Could you share what %Inh was measured for COc1ccc(Nc2nccc(NCCNC(=O)Nc3ccccc3F)n2)cc1 [GSK1379901] , tested on TBK1?
OUT: 21

IN: Could you share what %Inh was measured for Cn1ccc2ncnc(Oc3cccc(C(=O)Nc4ccccc4)c3)c21 , tested on TBK1?
OUT: 0

IN: Could you share what %Inh was measured for Nc1nc(-c2nccs2)c(-c2ccnc3ccccc23)s1 [GW693542] , tested on TBK1?
OUT: 5

IN: Could you share what %Inh was measured for CCn1c(-c2ccccn2)nc2cnccc21 [SB-736398] , tested on TBK1?
OUT: 0

IN: Could you share what %Inh was measured for Nc1ncnc2[nH]c(-c3ccccc3)nc12 [AH5015] , tested on TBK1?
OUT: 10

IN: Could you share what %Inh was measured for Fc1cccc(COc2nnc(-c3ccc4c(c3)CCO4)o2)c1 , tested on TBK1?
OUT: 0

IN: Could you share what %Inh was measured for Cc1ccc(C(=O)Nc2ccc(Nc3ccnc4cc(-c5ccccn5)ccc34)cc2O)cc1.Cl [GW440146] , tested on TBK1?
OUT: 0

IN: Could you share what %Inh was measured for COc1ccc(Nc2nccc(-c3cccc(NC(=O)c4cc5cc(F)ccc5[nH]4)c3)n2)cc1 [GSK1229782] , tested on TBK1?
OUT: 24

IN: Could you share what %Inh was measured for Cc1cc(N2Cc3ccccc3C2)nc(Nc2ccc(S(=O)(=O)N3CCOCC3)cc2)n1.Cl [GSK1669917] , tested on TBK1?
OUT: 30

IN: Could you share what %Inh was measured for Cc1cccc(-c2nc(-c3ccc(S(C)(=O)=O)cc3)sc2-c2ccnc(NCCc3ccccc3)c2)c1 , tested on TBK1?
OUT: 24

IN: Could you share what %Inh was measured for Cc1cccc(-c2nc(Nc3ccncc3)c3ccccc3n2)n1 [GW855857] , tested on TBK1?
OUT: 41

IN: Could you share what %Inh was measured for COc1ccccc1CNC(=O)c1cc(C(=O)c2ccccc2C)c[nH]1 [GSK364507] , tested on TBK1?
OUT: 19

IN: Could you share what %Inh was measured for Cc1cccc(-c2nc(Nc3cccc(C(N)=O)c3)c3ccccc3n2)n1 [GW876019] , tested on TBK1?
OUT: 40

IN: Could you share what %Inh was measured for Fc1cc(Cl)ccc1Nc1ccnc2cc(-c3ccc(CN4CCCCC4)o3)ccc12 [GW560116] , tested on TBK1?
OUT: 14

IN: Could you share what %Inh was measured for Cn1cncc1-c1ccc2ncnc(Nc3ccc(OCc4ccccc4)cc3)c2c1 [GW320571] , tested on TBK1?
OUT: 0

IN: Could you share what %Inh was measured for CC(C)(C)c1ccc(C(=O)Nc2cn3cc(-c4cccnc4)ccc3n2)cc1 , tested on TBK1?
OUT: 40

IN: Could you share what %Inh was measured for O=C1NC(=O)C(N2CCc3ccccc32)=C1c1ccccc1Cl [SB-373598] , tested on TBK1?
OUT: 19

IN: Could you share what %Inh was measured for Cc1cccc(-c2nc(Nc3ccc4[nH]ncc4c3)c3ccccc3n2)n1 [GW857175] , tested on TBK1?
OUT: 35

IN: Could you share what %Inh was measured for CCn1c(-c2cccnc2O)nc2cnccc21 [SB-736715] , tested on TBK1?;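 further: KINOMEscan kinase panel screen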
OUT: 0
